Parameter Potency: see the listing below.
# System: C33A
# measurement.protocol: Primary qHTS to identify gynecologic anti-cancer compounds using libraries of approved drugs and bioactive compounds (AID 1345084); note: potency is the fitted concentration of half-maximal effect; nearly all actives have a fitted effect of over 55% in size
# test.context: Gynecologic cancer cell panel viability, ATPlite luminescence, 48 h; series mostly up to 57.5 µM
Inconclusive results are not listed. Activity calls are given as the source filed them. Calls come from the whole dose curve; as a rule, active = well fitted cell-killing curve with a large enough effect; inconclusive = small, poorly fitted or top-dose-only effect, or effect the other way; inactive = flat fitted curve, though single readings scatter.

Examples from the recorded data:
# compound, study.system, Potency
measured = [
    ("C=C1C(=O)O[C@@H]2/C=C(\\C)C(=O)/C=C/[C@](C)(O)C[C@@H](OC(=O)C(C)C)[C@@H]12", "C33A", "8.91 µM (active)"),
    ("O=C1NC(=O)C(c2cn3c4c(cccc24)CCC3)C1c1c[nH]c2ccccc12 (stereo not given)", "C33A", "20 µM (active)"),
    ("O=C(c1ccccc1)c1ccc2nc(NC(=O)c3csc(C4CCN(c5ncnc6ccsc56)CC4)n3)[nH]c2c1", "C33A", "15.8 µM (active)"),
    ("C(#Cc1nc2ncccc2nc1OCCN1CCCC1)c1ccccc1", "C33A", "7.08 µM (active)"),
]

Query compound follows.
Note to self: Potency recorded for `O=C(/C=C/c1cccc(S(=O)(=O)Nc2ccccc2)c1)NO` was 11.2 µM (active)
